- system.tested: Amyloid-beta precursor protein (Homo sapiens, UniProt P05067)
- Sequence (P05067 whole entry): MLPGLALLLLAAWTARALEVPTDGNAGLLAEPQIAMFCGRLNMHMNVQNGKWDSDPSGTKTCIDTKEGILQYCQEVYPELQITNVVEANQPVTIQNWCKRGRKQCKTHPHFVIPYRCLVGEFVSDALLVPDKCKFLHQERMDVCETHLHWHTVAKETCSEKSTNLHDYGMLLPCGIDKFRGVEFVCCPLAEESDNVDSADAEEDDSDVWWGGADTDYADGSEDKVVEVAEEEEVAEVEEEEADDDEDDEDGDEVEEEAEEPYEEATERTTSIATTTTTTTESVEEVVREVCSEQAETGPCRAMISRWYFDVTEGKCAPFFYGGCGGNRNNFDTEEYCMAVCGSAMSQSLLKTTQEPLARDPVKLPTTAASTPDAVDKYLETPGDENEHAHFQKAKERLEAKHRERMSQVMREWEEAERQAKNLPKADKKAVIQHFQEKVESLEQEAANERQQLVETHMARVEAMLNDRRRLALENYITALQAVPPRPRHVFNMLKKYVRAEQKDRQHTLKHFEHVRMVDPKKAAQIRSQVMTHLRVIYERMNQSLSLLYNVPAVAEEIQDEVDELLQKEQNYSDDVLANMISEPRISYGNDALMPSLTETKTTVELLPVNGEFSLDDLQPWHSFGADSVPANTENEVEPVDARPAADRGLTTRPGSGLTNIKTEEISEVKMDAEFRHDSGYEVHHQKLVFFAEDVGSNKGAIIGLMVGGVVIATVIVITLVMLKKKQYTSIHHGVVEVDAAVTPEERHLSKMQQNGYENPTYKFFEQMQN
- assay.protocol: Inhibition of amyloid beta (1 to 42) (unknown origin) assessed as fibril formation at 10 uM incubated with agitation for 1 min every hr measured over 80 hrs by thioflavin-T assay relative to control
- Parameters: scale not given: the % may be the effect or the level left
Tag: Condition met if measured Activity is not below 90%, Condition not met if it is.

// below: answered molecules
**Query** Determine whether measured Activity meets or exceeds 90% for "O=C(/C=C/c1ccc(O)c(O)c1)NCCCNC(=O)/C=C/c1ccc(O)c(O)c1"
**Result** Condition not met

**Query** Determine whether measured Activity meets or exceeds 90% for "O=C(/C=C/c1ccc(O)c(O)c1)O[C@H](Cc1ccc(O)c(O)c1)C(=O)NCc1cn(Cc2ccc(-c3ccc(Cn4cc(CNC(=O)[C@@H](Cc5ccc(O)c(O)c5)OC(=O)/C=C/c5ccc(O)c(O)c5)nn4)cc3)cc2)nn1"
**Result** Condition not met

**Query** Determine whether measured Activity meets or exceeds 90% for "C#CCNC(=O)[C@@H](Cc1ccc(O)c(O)c1)OC(=O)/C=C/c1ccc(O)c(O)c1"
**Result** Condition met

**Query** Determine whether measured Activity meets or exceeds 90% for "C#CCCCNC(=O)/C=C/c1ccc(O)c(O)c1"
**Result** Condition met

**Query** Determine whether measured Activity meets or exceeds 90% for "O=C(/C=C/c1ccc(O)c(O)c1)NCCOCCOCCNC(=O)/C=C/c1ccc(O)c(O)c1"
**Result** Condition not met

Please turn your attention to the following entry.
**Query** Determine whether measured Activity meets or exceeds 90% for "O=C(/C=C/c1ccc(O)c(O)c1)O[C@H](Cc1ccc(O)c(O)c1)C(=O)O"
**Result** Condition not met
